Biological target: UniProt:O15151
Sequence (O15151 1-125): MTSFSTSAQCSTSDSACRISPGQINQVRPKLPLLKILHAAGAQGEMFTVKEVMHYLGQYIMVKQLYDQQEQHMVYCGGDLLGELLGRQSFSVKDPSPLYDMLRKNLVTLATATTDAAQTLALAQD
Assay: Competitive fluorescence polarization assay for MDMX
Assay type: binding
Conditions: competitive FP assay, read-out: IC50 (MDMX)
Measured endpoint: IC50

Entry "CC(=O)N[C@@H](C)C(=O)N[C@@H](CC(C)C)C(=O)N[C@H](C(=O)N[C@@H](Cc1ccccc1)C(=O)N[C@]1(C)CCCCCCC=CCCC[C@@](C)(C(=O)N[C@@H](CO)C(=O)N[C@@H](C)C(=O)N[C@@H](C)C(=O)N[C@@H](C)C(N)=O)NC(=O)[C@H](CC2CCC2)NC(=O)[C@H](CCC(N)=O)NC(=O)[C@H](C)NC(=O)[C@H](Cc2c[nH]c3ccccc23)NC(=O)[C@H](Cc2ccc(O)cc2)NC(=O)[C@H](CCC(=O)O)NC1=O)[C@@H](C)O" : IC50 on UniProt:O15151 = 10 to 100 nM
